# credit: paper PMC10786891

Assignment: determine reported Kd for the given binders.
Molecular target: T1, EsCas13d, nuclease-dead (Eubacterium siraeum, UniProt B0MS50, R295A;H300A;R849A;H854A)
T1 sequence: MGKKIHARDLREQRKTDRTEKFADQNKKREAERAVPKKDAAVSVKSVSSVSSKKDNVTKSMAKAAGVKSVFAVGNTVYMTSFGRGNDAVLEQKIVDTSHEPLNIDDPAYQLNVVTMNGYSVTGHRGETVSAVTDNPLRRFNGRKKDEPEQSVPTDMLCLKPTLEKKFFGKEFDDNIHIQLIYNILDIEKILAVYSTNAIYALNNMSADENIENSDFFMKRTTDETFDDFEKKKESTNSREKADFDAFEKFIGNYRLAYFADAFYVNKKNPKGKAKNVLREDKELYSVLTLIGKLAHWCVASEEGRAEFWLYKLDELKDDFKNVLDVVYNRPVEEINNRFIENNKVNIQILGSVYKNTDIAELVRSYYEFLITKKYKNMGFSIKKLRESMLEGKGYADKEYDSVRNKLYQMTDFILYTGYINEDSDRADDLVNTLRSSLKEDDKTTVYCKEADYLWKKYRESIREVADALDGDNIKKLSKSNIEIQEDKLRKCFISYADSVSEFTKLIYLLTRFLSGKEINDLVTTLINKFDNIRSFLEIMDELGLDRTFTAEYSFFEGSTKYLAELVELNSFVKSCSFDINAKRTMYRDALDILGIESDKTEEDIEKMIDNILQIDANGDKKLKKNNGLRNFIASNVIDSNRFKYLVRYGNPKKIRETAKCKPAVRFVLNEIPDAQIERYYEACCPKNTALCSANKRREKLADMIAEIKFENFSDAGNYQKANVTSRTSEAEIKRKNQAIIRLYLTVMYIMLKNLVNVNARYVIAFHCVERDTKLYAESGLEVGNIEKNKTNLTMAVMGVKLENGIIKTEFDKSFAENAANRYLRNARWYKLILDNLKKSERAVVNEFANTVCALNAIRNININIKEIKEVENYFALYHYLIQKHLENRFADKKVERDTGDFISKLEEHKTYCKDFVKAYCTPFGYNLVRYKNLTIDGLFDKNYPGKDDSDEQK
Test: crRNA (strand 1, pre-loaded); Mg2+; 40 mM Tris-HCl pH 7.5, 150 mM NaCl, 6 mM MgCl2, 1 mM DTT, 0.1% Tween-20, 0.2 mg/ml BSA; 25 C; 10 min per concentration, then washed
Conditions: tags: His6-TwinStrep-SUMO cleaved; N-terminal SNAP kept (SNAP-Surface 488); label: 3' end held by stalled T7 RNA polymerase
Answer format: value, then unit.

Challenge: Give its Kd value. Item: target 2 MT 5'PFS AGU 3'PFS CCG (mixed) RNA 1: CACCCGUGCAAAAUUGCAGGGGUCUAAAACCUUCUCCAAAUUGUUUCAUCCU RNA 2: GGGAAUGGAUCCACAUCUACGAAUUCAGUAGGAUGAAACAAUUUGGAGAAGCCGAGAUCGGAAGAGCACACGU
Response given: 10.2 nM

Challenge: Form field: reported Kd of target 1 MT 5'PFS UCG 3'PFS UCC (mixed) RNA 1: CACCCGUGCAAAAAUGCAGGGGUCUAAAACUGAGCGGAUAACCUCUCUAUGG RNA 2: GGGAAUGGAUCCACAUCUACGAAUUCUCGCCAUAGAGAGGUUAUCCGCUCAUCCAGAUCGGAAGAGCACACGU
Response given: 24.5 nM
